Every entry's value here was drawn from ChEMBL document CHEMBL1156022.

protocol-description: Plasma clearance in rat at 5 mg/kg, po
Type: ADME, organism-based
Design: dose 5 mg/kg, route oral
readout-kind: CL/F

Record N#Cc1cccc(S(=O)(=O)N2C[C@H](N3CCCC(F)(F)C3)C[C@H]2C(=O)N[C@@H](Cc2ccc(NC(=O)c3c(Cl)cncc3Cl)cc2)C(=O)O)c1 , field CL/F: > 100 mL/min/kg

###

protocol-description: Cmax in rat at 5 mg/kg, po
Assay type: ADME, organism-based
Design: dose 5 mg/kg, route oral
measurement-parameters: in vivo
readout-kind: Cmax (nM)
Provide only the numeric value, understood in nM.

Record N#Cc1cccc(S(=O)(=O)N2C[C@H](N3CCCC(F)(F)C3)C[C@H]2C(=O)N[C@@H](Cc2ccc(NC(=O)c3c(Cl)cncc3Cl)cc2)C(=O)O)c1 , field Cmax: 27

###

protocol-description: Bioavailability in rat at 5 mg/kg, po
Assay type: ADME, organism-based
measurement-parameters: in vivo
readout-kind: bioavailability

Record N#Cc1cccc(S(=O)(=O)N2C[C@H](N3CCCC(F)(F)C3)C[C@H]2C(=O)N[C@@H](Cc2ccc(NC(=O)c3c(Cl)cncc3Cl)cc2)C(=O)O)c1 , field bioavailability: < 5%

###

system-name: Integrin alpha-4/beta-1 (Homo sapiens, UniProt P05556+P13612)
Sequence (P05556 whole entry): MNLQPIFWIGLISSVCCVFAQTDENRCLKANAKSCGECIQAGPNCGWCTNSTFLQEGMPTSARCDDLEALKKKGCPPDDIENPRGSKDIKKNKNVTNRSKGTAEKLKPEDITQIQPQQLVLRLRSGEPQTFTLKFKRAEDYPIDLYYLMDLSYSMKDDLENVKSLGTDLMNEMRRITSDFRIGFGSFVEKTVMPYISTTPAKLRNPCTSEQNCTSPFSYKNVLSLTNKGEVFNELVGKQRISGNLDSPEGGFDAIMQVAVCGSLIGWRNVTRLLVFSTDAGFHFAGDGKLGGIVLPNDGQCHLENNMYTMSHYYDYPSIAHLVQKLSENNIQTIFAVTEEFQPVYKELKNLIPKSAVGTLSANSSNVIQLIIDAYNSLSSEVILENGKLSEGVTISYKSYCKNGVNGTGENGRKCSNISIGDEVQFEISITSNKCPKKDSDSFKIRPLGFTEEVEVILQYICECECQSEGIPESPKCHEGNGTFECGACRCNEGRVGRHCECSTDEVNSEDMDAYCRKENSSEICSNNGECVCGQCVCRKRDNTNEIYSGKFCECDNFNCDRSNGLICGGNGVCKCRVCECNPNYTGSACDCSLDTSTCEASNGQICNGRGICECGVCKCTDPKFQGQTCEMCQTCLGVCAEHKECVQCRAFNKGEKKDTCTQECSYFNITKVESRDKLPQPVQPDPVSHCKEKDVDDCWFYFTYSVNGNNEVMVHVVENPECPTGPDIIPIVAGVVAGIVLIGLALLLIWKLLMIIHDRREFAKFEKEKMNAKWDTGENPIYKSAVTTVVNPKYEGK
Sequence (P13612 whole entry): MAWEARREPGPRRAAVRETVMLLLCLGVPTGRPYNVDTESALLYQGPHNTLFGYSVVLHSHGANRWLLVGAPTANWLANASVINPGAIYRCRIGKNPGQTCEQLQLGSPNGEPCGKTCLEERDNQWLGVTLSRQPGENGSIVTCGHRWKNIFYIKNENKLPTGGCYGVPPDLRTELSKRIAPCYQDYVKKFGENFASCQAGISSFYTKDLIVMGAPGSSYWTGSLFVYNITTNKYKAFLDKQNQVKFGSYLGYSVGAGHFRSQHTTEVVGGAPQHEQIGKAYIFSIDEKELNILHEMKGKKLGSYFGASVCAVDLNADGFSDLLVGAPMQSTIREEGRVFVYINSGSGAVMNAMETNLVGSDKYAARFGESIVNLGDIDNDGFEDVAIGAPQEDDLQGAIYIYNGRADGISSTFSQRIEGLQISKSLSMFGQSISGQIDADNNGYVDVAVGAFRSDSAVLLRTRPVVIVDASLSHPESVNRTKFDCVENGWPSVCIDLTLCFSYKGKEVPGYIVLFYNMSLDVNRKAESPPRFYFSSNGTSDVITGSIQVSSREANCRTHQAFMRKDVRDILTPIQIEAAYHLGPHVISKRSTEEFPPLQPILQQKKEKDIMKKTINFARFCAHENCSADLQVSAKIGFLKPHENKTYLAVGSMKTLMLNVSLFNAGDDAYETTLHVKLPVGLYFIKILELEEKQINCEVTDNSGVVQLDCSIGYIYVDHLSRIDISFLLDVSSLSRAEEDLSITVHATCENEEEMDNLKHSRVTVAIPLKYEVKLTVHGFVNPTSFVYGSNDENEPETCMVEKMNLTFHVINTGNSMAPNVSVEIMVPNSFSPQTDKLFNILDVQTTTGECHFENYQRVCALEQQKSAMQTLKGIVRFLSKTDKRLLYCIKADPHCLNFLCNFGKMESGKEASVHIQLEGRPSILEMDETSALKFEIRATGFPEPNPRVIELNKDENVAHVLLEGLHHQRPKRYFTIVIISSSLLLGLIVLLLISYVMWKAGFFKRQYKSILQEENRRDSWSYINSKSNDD
protocol-description: Displacement of [35S]-labeled ligand from VLA4 in human Jurkat cells washed with buffer containing non activating Ca2+ and Mg2+ by competitive binding assay
Assay type: cell-based
So basically, if IC50 comes in under 0.2 nM it's MET, and if it's 0.2 nM or more it's NOT MET.

Solved cases (5 shown):
Regarding N#Cc1cccc(S(=O)(=O)N2C[C@H](N3CCCCC3)C[C@H]2C(=O)N[C@@H](Cc2ccc(NC(=O)c3c(Cl)cncc3Cl)cc2)C(=O)O)c1 , kindly confirm whether its IC50 is beneath 0.2 nM. MET

Regarding N#Cc1cccc(S(=O)(=O)N2C[C@H](N3CC[C@@H](F)C3)C[C@H]2C(=O)N[C@@H](Cc2ccc(NC(=O)c3c(Cl)cncc3Cl)cc2)C(=O)O)c1 , kindly confirm whether its IC50 is beneath 0.2 nM. MET

Regarding N#Cc1cccc(S(=O)(=O)N2C[C@H](N3CCC(F)(F)CC3)C[C@H]2C(=O)N[C@@H](Cc2ccc(NC(=O)c3c(Cl)cncc3Cl)cc2)C(=O)O)c1 , kindly confirm whether its IC50 is beneath 0.2 nM. NOT MET

Regarding N#Cc1cccc(S(=O)(=O)N2C[C@H](N(CC(F)(F)F)C3CCC3)C[C@H]2C(=O)N[C@@H](Cc2ccc(NC(=O)c3c(Cl)cncc3Cl)cc2)C(=O)O)c1 , kindly confirm whether its IC50 is beneath 0.2 nM. MET

Regarding N#Cc1cccc(S(=O)(=O)N2C[C@H](N3CC(F)(F)C3)C[C@H]2C(=O)N[C@@H](Cc2ccc(NC(=O)c3c(Cl)cncc3Cl)cc2)C(=O)O)c1 , kindly confirm whether its IC50 is beneath 0.2 nM. NOT MET

***
Regarding N#Cc1cccc(S(=O)(=O)N2C[C@H](N3CC(F)C3)C[C@H]2C(=O)N[C@@H](Cc2ccc(NC(=O)c3c(Cl)cncc3Cl)cc2)C(=O)O)c1 , kindly confirm whether its IC50 is beneath 0.2 nM. NOT MET

Regarding N#Cc1cccc(S(=O)(=O)N2C[C@H](N3CCCC(F)(F)C3)C[C@H]2C(=O)N[C@@H](Cc2ccc(NC(=O)c3c(Cl)cncc3Cl)cc2)C(=O)O)c1 , kindly confirm whether its IC50 is beneath 0.2 nM. MET

Regarding N#Cc1cccc(S(=O)(=O)N2C[C@H](N3CCC(F)CC3)C[C@H]2C(=O)N[C@@H](Cc2ccc(NC(=O)c3c(Cl)cncc3Cl)cc2)C(=O)O)c1 , kindly confirm whether its IC50 is beneath 0.2 nM. NOT MET
